Source of measurements: patent US20020058247A1

Target: T1, Full length recombinant HBcAg (rHBcAg) encompassing residues 1-183 (hepatitis B virus, UniProt P03146 1-183)
T1 construct: range 1-183; also called hepatitis B virus core antigen
T1 sequence (P03146 whole entry, the tested form may be a part): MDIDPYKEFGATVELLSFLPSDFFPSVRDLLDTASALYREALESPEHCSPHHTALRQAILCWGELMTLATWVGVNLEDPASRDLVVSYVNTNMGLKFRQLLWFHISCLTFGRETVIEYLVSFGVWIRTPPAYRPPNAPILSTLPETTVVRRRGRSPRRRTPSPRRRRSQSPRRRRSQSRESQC
Assay: competition EIA, HBcAg coated 5 ug/ml, peptide 6.25 ug/ml together with mAb 4-2 (competitor); OD of bound mAb
Binary call on OD at 490 nm: TRUE from 1 OD upward, FALSE beneath that.

Worked examples follow.
[
  {
    "BINDER": "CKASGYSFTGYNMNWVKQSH (also called Peptide # 26) [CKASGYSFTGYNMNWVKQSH (SEQ. ID. No. 29)]",
    "GROUP": "TRUE"
  },
  {
    "BINDER": "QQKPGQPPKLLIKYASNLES [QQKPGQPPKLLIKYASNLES (SEQ. ID. No. 19)]",
    "GROUP": "TRUE"
  },
  {
    "BINDER": "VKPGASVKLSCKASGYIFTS (also called Peptide # 2; Pept. #2) [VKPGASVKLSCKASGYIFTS (SEQ. ID. No. 5)]",
    "GROUP": "FALSE"
  },
  {
    "BINDER": "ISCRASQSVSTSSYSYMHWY [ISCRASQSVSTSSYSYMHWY (SEQ. ID. No. 17)]",
    "GROUP": "TRUE"
  }
]

Check if OD at 490 nm >= 1 OD (inclusive). Item: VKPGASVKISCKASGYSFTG (also called Peptide # 25) [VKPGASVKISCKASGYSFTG (SEQ. ID. No. 28)]
TRUE
